Source of measurements: patent US6586440B2

target system: Uracil reductase (dihydropyrimidine dehydrogenase, EC 1.3.1.2) (Bos taurus, UniProt Q28007)
Construct: (dihydropyrimidine dehydrogenase, EC 1.3.1.2) purified from bovine live; from tissue; host or cells: bovine liver ('bovine live' [sic])
test summary: Determination of uracil reductase inactivation
Assay type: biochemical, bovine
condition notes: fractional activity as a function of time of incubation of 50 μM inactivator with enzyme
Description: Determination of Uracil Reductase Inactivation Uracil reductase (1 μM) (dihydropyrimidine dehydrogenase, EC 1.3.1.2) purified from bovine live was incubated with 100 μM inactivator and 5 mM dithiothreitol (enzyme reductant) at 37° for 30 minutes in 0.05 M Tris-HCL at pH 8.0. […] The velocity of the enzyme was determined spectrophotometrically. […]
assay endpoint: relative first-order rate constants for inactivation of enzyme (parenthetical values)

See these solved cases before continuing.
{"columns": ["given smiles", "meas value"],
 "data": [
  ["C=C(Cl)c1c[nH]c(=O)[nH]c1=O", "(5)"],
  ["N#Cc1c[nH]c(=O)[nH]c1=O", "(14)"],
  ["C#Cc1c[nH]c(=O)[nH]c1=O", "(100)"],
  ["CC#Cc1c[nH]c(=O)[nH]c1=O", "(8)"]
]}

INPUT: Look at this molecule and give its reported relative first-order rate constants for inactivation of enzyme (parenthetical values). `O=c1[nH]cc(C#CBr)c(=O)[nH]1`
OUTPUT: (8)

INPUT: Look at this molecule and give its reported relative first-order rate constants for inactivation of enzyme (parenthetical values). `O=c1[nH]cc(I)c(=O)[nH]1`
OUTPUT: (4)

* * *

target system: Uracil reductase (dihydropyrimidine dehydrogenase, EC 1.3.1.2) (Bos taurus)
Construct: (dihydropyrimidine dehydrogenase, EC 1.3.1.2) purified from bovine live; from tissue; host or cells: bovine liver ('bovine live' [sic])
test summary: Determination of uracil reductase inactivation
Format: biochemical, bovine
condition notes: 0.5 h; 1 μM enzyme incubated with 100 μM inactivator and 5 mM dithiothreitol, 37°, 30 minutes, pH 8.0; then diluted 100-fold into assay buffer; read-out: % Inactivation
assay endpoint: inhibition at 100 µM (%)

{"columns": ["molecule", "result units", "inhibition at 100 µM"],
 "data": [
  ["CCCCC#Cc1c[nH]c(=O)[nH]c1=O [5-hex-1-ynyluracil]", "%", 90],
  ["O=c1[nH]cc(C#CBr)c(=O)[nH]1 [5-bromoethynyluracil]", "%", 100],
  ["O=c1[nH]cc(I)c(=O)[nH]1 [Example 5-iodouracil, 5-iodouracil]", "%", 100],
  ["N#Cc1c[nH]c(=O)[nH]c1=O [5-cyanouracil]", "%", 100],
  ["C=C(Cl)c1c[nH]c(=O)[nH]c1=O [5-(1-chlorovinyl)uracil]", "%", 100]
]}

a = O=c1[nH]cc(C(Cl)=CBr)c(=O)[nH]1 [5-(2-bromo-1-chlorovinyl)uracil]
b = C#Cc1c[nH]c(=O)[nH]c1=O [5-ethynyluracil, 5-Ethynyluracil]
INPUT: Select the item with the higher value of inhibition at 100 µM from the options a and b listed. Write down the label attached to your selection.
OUTPUT: b
(b: 100%, a: 68%)

* * *

target system: Uracil reductase (dihydropyrimidine dehydrogenase, EC 1.3.1.2) (Bos taurus)
Construct: (dihydropyrimidine dehydrogenase, EC 1.3.1.2) purified from bovine live; from tissue; host or cells: bovine liver ('bovine live' [sic])
Sequence (Q28007 1-1025): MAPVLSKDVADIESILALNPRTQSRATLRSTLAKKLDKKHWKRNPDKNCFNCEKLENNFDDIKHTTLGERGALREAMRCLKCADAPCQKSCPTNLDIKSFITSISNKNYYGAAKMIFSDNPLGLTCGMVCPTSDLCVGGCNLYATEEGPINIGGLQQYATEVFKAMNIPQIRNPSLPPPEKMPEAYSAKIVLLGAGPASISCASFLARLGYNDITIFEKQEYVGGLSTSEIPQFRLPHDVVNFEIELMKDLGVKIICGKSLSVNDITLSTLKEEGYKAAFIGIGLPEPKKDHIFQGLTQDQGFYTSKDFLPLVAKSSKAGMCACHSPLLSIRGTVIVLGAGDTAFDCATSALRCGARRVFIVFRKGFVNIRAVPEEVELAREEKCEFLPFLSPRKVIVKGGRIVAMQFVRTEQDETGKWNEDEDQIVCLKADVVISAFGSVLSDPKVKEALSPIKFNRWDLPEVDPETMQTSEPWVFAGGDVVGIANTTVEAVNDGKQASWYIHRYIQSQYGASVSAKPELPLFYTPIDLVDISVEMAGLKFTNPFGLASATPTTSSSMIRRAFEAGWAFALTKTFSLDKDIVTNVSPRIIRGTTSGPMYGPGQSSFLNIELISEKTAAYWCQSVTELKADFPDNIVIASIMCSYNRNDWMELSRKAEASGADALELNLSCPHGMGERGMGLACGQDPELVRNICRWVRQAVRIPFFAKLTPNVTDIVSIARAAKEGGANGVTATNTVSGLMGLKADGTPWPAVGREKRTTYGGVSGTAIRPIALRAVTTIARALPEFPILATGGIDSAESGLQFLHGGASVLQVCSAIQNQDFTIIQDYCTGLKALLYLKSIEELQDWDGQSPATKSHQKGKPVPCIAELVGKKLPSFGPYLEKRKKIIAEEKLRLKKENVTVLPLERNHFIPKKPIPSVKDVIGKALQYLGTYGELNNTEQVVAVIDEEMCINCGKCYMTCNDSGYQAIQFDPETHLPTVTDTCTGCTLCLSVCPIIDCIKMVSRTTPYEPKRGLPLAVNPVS
test summary: Determination of uracil reductase inactivation
Assay type: biochemical, bovine
condition notes: 0.5 h; 1 μM enzyme incubated with 100 μM inactivator and 5 mM dithiothreitol, 37°, 30 minutes, pH 8.0; then diluted 100-fold into assay buffer; read-out: % Inactivation
Method: Determination of Uracil Reductase Inactivation Uracil reductase (1 μM) (dihydropyrimidine dehydrogenase, EC 1.3.1.2) purified from bovine live was incubated with 100 μM inactivator and 5 mM dithiothreitol (enzyme reductant) at 37° for 30 minutes in 0.05 M Tris-HCL at pH 8.0. […] The velocity of the enzyme was determined spectrophotometrically. […]
assay endpoint: inhibition at 100 µM (%)

{"columns": ["given smiles", "target system", "inhibition at 100 µM (%)"],
 "data": [
  ["O=c1[nH]cc(C=CBr)c(=O)[nH]1", "Uracil reductase (dihydropyrimidine dehydrogenase, EC 1.3.1.2) (Bos taurus)", 93],
  ["CC#Cc1c[nH]c(=O)[nH]c1=O", "Uracil reductase (dihydropyrimidine dehydrogenase, EC 1.3.1.2) (Bos taurus)", 100],
  ["C=Cc1c[nH]c(=O)[nH]c1=O", "Uracil reductase (dihydropyrimidine dehydrogenase, EC 1.3.1.2) (Bos taurus)", 86]
]}
